The reported numbers originate from patent US20240092779A1.

# PROTOCOL SUMMARY: Liver microsomal stability (HLM)
# Type: in vitro ADME
# CONDITION NOTES: human, liver microsomes, human liver microsomes 0.5 mg/mL, 1 μM compound, NADPH

- MOLECULAR STRING: "COc1ncnc(C2CC2)c1-c1ncc2ccc(=O)n(Cc3ccc(-c4ncccc4OC(C)C)cc3)c2n1"
  microsomal CLint at 1 μM: "≥ 50 µL/min/mg"
- MOLECULAR STRING: "COc1ncnc(C2CC2)c1-c1ncc2cc(-c3cn[nH]c3)c(=O)n(Cc3ccc(-c4nc(C(F)(F)F)cn4C4CC4)cc3)c2n1"
  microsomal CLint at 1 μM: "< 10 µL/min/mg"
- MOLECULAR STRING: "COc1ncnc(C2CC2)c1-c1ncc2c(C)c(-c3cnn(C)c3)c(=O)n(Cc3ccc(-c4nc(C(F)(F)F)cn4C4CC4)cc3)c2n1"
  microsomal CLint at 1 μM: "< 10 µL/min/mg"
- MOLECULAR STRING: "COc1ncnc(C2CC2)c1-c1ncc2cc(-c3c(C)nn(C)c3C)c(=O)n(Cc3ccc(-c4nc(C(F)(F)F)cn4C4CC4)cc3)c2n1"
  microsomal CLint at 1 μM: "10 to 50 µL/min/mg"
- MOLECULAR STRING: "COc1cc(Cn2c(=O)ccc3cnc(-c4c(OC)ncnc4C4CC4)nc32)cc(F)c1-c1nc(C(F)(F)F)cn1C1CC1"
  microsomal CLint at 1 μM: "10 to 50 µL/min/mg"
- MOLECULAR STRING: "COc1cc(Cn2c(=O)ccc3c(C)nc(-c4c(OC)ncnc4C4CC4)nc32)cc(F)c1-c1nc(C(F)(F)F)cn1C1CC1"
  microsomal CLint at 1 μM: "< 10 µL/min/mg"

====

# PROTOCOL SUMMARY: Solubility in FaSSIF (Fasted State Simulated Intestinal Fluid)
# Type: physicochemical
# CONDITION NOTES: kinetic from dmso stock, FaSSIF pH 6.5, 25° C.
Recorded solubility at 2 h values for a group of compounds are listed next.

- MOLECULAR STRING: "COc1ncnc(C2CC2)c1-c1ncc2nc(N3CCN(C)CC3)c(=O)n(Cc3ccc(-c4nc(C(F)(F)F)cn4C4CC4)cc3)c2n1"
  solubility at 2 h: "≥ 100 µM"
- MOLECULAR STRING: "COc1cc(Cn2c(=O)ccc3c(C)nc(-c4c(OC)ncnc4C4CC4)nc32)cc(F)c1-c1nc(C(F)(F)F)cn1C1CC1"
  solubility at 2 h: "10 to 100 µM"
- MOLECULAR STRING: "COc1ncnc(C2CC2)c1-c1ncc2cc(-c3ncn(C)n3)c(=O)n(Cc3ccc(-c4nc(C(F)(F)F)cn4C4CC4)cc3)c2n1"
  solubility at 2 h: "≥ 100 µM"
- MOLECULAR STRING: "COc1ncnc(C2CC2)c1-c1ncc2cc(-c3c(C)cnn3C)c(=O)n(Cc3ccc(-c4nc(C(F)(F)F)cn4C4CC4)cc3)c2n1"
  solubility at 2 h: "10 to 100 µM"
- MOLECULAR STRING: "COc1cc(Cn2c(=O)ccc3cnc(-c4c(OC)ncnc4C4CC4)c(F)c32)ccc1-c1nc(C(F)(F)F)cn1C1CC1"
  solubility at 2 h: "10 to 100 µM"
- MOLECULAR STRING: "COc1ncnc(C2CC2)c1-c1ncc2cc(-c3cn(C)nn3)c(=O)n(Cc3ccc(-c4nc(C(F)(F)F)cn4C4CC4)cc3)c2n1"
  solubility at 2 h: "10 to 100 µM"
